Catalogue of CC50 at 72 h values
assay: Cytotoxicity against human BJ cells after 3 days by MTT assay; format: cell-based
Assay metric: CC50 at 72 h (µM)

INSERT INTO results (molecule, assay_metric, meas_value) VALUES
  ('C[C@]1(CO)O[C@@H](n2cc(-c3cc4ccccc4o3)c3c(N)ncnc32)[C@H](O)[C@@H]1O', 'CC50 at 72 h', 104),
  ('C[C@]1(CO)O[C@@H](n2cc(I)c3c(N)ncnc32)[C@H](O)[C@@H]1O', 'CC50 at 72 h', 42.4),
  ('CCOC(=O)[C@H](C)NP(=O)(OC[C@@]1(C)O[C@@H](n2ccc3c(-c4cccs4)ncnc32)[C@H](O)[C@@H]1O)Oc1ccccc1 (stereo not given in full)', 'CC50 at 72 h', 83.1),
  ('CCOC(=O)[C@H](C)NP(=O)(OC[C@@]1(C)O[C@@H](n2ccc3c(-c4ccccc4)ncnc32)[C@H](O)[C@@H]1O)Oc1ccccc1 (stereo not given in full)', 'CC50 at 72 h', 75.3),
  ('C#Cc1cn([C@@H]2O[C@](C)(CO)[C@@H](O)[C@H]2O)c2ncnc(N)c12', 'CC50 at 72 h', 126);

###

assay: Cytotoxicity against human HuH7 cells; format: cell-based, Huh-7
Catalogue of CC50 values
Assay metric: CC50

INSERT INTO assay_data (molecule, meas_value) VALUES
  ('C[C@]1(CO)O[C@@H](n2cc(-c3ccsc3)c3c(N)ncnc32)[C@H](O)[C@@H]1O', '> 44 µM'),
  ('CCOC(=O)[C@H](C)NP(=O)(OC[C@@]1(C)O[C@@H](n2ccc3c(-c4ccco4)ncnc32)[C@H](O)[C@@H]1O)Oc1ccccc1 (stereo partly specified)', '27.9 µM'),
  ('CCOC(=O)[C@H](C)NP(=O)(OC[C@@]1(C)O[C@@H](n2cc(-c3cccs3)c3c(N)ncnc32)[C@H](O)[C@@H]1O)Oc1ccccc1 (stereo partly specified)', '13 µM'),
  ('C[C@]1(CO)O[C@@H](n2ccc3c(-c4cc5ccccc5o4)ncnc32)[C@H](O)[C@@H]1O', '> 44 µM'),
  ('C[C@]1(CO)O[C@@H](n2cc(-c3cccs3)c3c(N)ncnc32)[C@H](O)[C@@H]1O', '> 44 µM'),
  ('C#Cc1cn([C@@H]2O[C@](C)(CO)[C@@H](O)[C@H]2O)c2ncnc(N)c12', '32.2 µM');

###

tested on: A549; assay: Cytotoxicity against human A549 cells after 3 days by MTT assay; format: functional, cell-based; conditions: A549, 72 h
Catalogue of IC50 values
Assay metric: IC50

INSERT INTO measurements (molecule, assay_metric, meas_value) VALUES
  ('CCOC(=O)[C@H](C)NP(=O)(OC[C@@]1(C)O[C@@H](n2ccc3c(-c4cccs4)ncnc32)[C@H](O)[C@@H]1O)Oc1ccccc1 (stereo not given in full)', 'IC50', '22.2 µM'),
  ('C#Cc1cn([C@@H]2O[C@](C)(CO)[C@@H](O)[C@H]2O)c2ncnc(N)c12', 'IC50', '9.55 µM'),
  ('C[C@]1(CO)O[C@@H](n2cc(-c3cc4ccccc4o3)c3c(N)ncnc32)[C@H](O)[C@@H]1O', 'IC50', '7.13 µM'),
  ('CCOC(=O)[C@H](C)NP(=O)(OC[C@@]1(C)O[C@@H](n2ccc3c(-c4ccccc4)ncnc32)[C@H](O)[C@@H]1O)Oc1ccccc1 (stereo not given in full)', 'IC50', '25.9 µM'),
  ('C[C@]1(CO)O[C@@H](n2cc(I)c3c(N)ncnc32)[C@H](O)[C@@H]1O', 'IC50', '5.92 µM');

###

Catalogue of pIC50 values
assay: Cytotoxicity against human K562-TAX cells after 3 days by MTT assay; format: functional, cell-based; conditions: 72 h
pIC50: −log10 of the molar value.
Assay metric: pIC50

INSERT INTO results (molecule, assay_metric, meas_value) VALUES
  ('C#Cc1cn([C@@H]2O[C@](C)(CO)[C@@H](O)[C@H]2O)c2ncnc(N)c12', 'pIC50', 4.56),
  ('C[C@]1(CO)O[C@@H](n2cc(I)c3c(N)ncnc32)[C@H](O)[C@@H]1O', 'pIC50', 5.02),
  ('CCOC(=O)[C@H](C)NP(=O)(OC[C@@]1(C)O[C@@H](n2ccc3c(-c4cccs4)ncnc32)[C@H](O)[C@@H]1O)Oc1ccccc1 (stereo not given in full)', 'pIC50', 4.47),
  ('C[C@]1(CO)O[C@@H](n2cc(-c3cc4ccccc4o3)c3c(N)ncnc32)[C@H](O)[C@@H]1O', 'pIC50', 5.05),
  ('CCOC(=O)[C@H](C)NP(=O)(OC[C@@]1(C)O[C@@H](n2ccc3c(-c4ccccc4)ncnc32)[C@H](O)[C@@H]1O)Oc1ccccc1 (stereo not given in full)', 'pIC50', 4.45);

###

assay: Cytotoxicity against human HuH7 cells; assay type: cell-based, Huh-7
Catalogue of CC50 values
Assay metric: CC50 (µM)

INSERT INTO measurements (molecule, assay_metric, comparator, meas_value) VALUES
  ('C[C@]1(CO)O[C@@H](n2cc(-c3cc4ccccc4o3)c3c(N)ncnc32)[C@H](O)[C@@H]1O', 'CC50', '=', 31.1),
  ('CCOC(=O)[C@H](C)NP(=O)(OC[C@@]1(C)O[C@@H](n2cc(-c3ccco3)c3c(N)ncnc32)[C@H](O)[C@@H]1O)Oc1ccccc1 (some centres not stated)', 'CC50', '=', 20.8),
  ('CCOC(=O)[C@H](C)NP(=O)(OC[C@@]1(C)O[C@@H](n2ccc3c(-c4ccccc4)ncnc32)[C@H](O)[C@@H]1O)Oc1ccccc1 (some centres not stated)', 'CC50', '>', 44),
  ('C[C@]1(CO)O[C@@H](n2cc(-c3ccco3)c3c(N)ncnc32)[C@H](O)[C@@H]1O', 'CC50', '>', 44),
  ('CCOC(=O)[C@H](C)NP(=O)(OC[C@@]1(C)O[C@@H](n2ccc3c(-c4cccs4)ncnc32)[C@H](O)[C@@H]1O)Oc1ccccc1 (some centres not stated)', 'CC50', '=', 3.64),
  ('CCOC(=O)[C@H](C)NP(=O)(OC[C@@]1(C)O[C@@H](n2cc(-c3ccccc3)c3c(N)ncnc32)[C@H](O)[C@@H]1O)Oc1ccccc1 (some centres not stated)', 'CC50', '=', 9.1),
  ('C[C@]1(CO)O[C@@H](n2cc(I)c3c(N)ncnc32)[C@H](O)[C@@H]1O', 'CC50', '=', 27.1);

###

Catalogue of CC50 at 72 h values
experiment: Cytotoxicity against human MRC5 cells after 3 days by MTT assay; assay type: cell-based
Assay metric: CC50 at 72 h (µM)

INSERT INTO results (compound, endpoint_unit, meas_value) VALUES
  ('C[C@]1(CO)O[C@@H](n2cc(I)c3c(N)ncnc32)[C@H](O)[C@@H]1O', 'µM', 40.8),
  ('CCOC(=O)[C@H](C)NP(=O)(OC[C@@]1(C)O[C@@H](n2ccc3c(-c4ccccc4)ncnc32)[C@H](O)[C@@H]1O)Oc1ccccc1 (stereo not given in full)', 'µM', 108),
  ('C[C@]1(CO)O[C@@H](n2cc(-c3cc4ccccc4o3)c3c(N)ncnc32)[C@H](O)[C@@H]1O', 'µM', 83.7),
  ('CCOC(=O)[C@H](C)NP(=O)(OC[C@@]1(C)O[C@@H](n2ccc3c(-c4cccs4)ncnc32)[C@H](O)[C@@H]1O)Oc1ccccc1 (stereo not given in full)', 'µM', 106),
  ('C#Cc1cn([C@@H]2O[C@](C)(CO)[C@@H](O)[C@H]2O)c2ncnc(N)c12', 'µM', 125);

###

experiment: Cytotoxicity against African green monkey Vero cells; assay type: cell-based; conditions: chlorocebus sabaeus
Catalogue of CC50 values
Assay metric: CC50

INSERT INTO assay_data (compound, meas_value) VALUES
  ('C[C@]1(CO)O[C@@H](n2cc(-c3ccco3)c3c(N)ncnc32)[C@H](O)[C@@H]1O', '> 50 µM'),
  ('CCOC(=O)[C@H](C)NP(=O)(OC[C@@]1(C)O[C@@H](n2ccc3c(-c4ccccc4)ncnc32)[C@H](O)[C@@H]1O)Oc1ccccc1 (some centres undefined)', '> 50 µM'),
  ('C#Cc1cn([C@@H]2O[C@](C)(CO)[C@@H](O)[C@H]2O)c2ncnc(N)c12', '13.4 µM'),
  ('C[C@]1(CO)O[C@@H](n2cc(-c3ccsc3)c3c(N)ncnc32)[C@H](O)[C@@H]1O', '> 50 µM'),
  ('C[C@]1(CO)O[C@@H](n2cc(I)c3c(N)ncnc32)[C@H](O)[C@@H]1O', '8.08 µM'),
  ('C[C@]1(CO)O[C@@H](n2cc(-c3cc4ccccc4o3)c3c(N)ncnc32)[C@H](O)[C@@H]1O', '27 µM'),
  ('C[C@]1(CO)O[C@@H](n2cc(-c3cccs3)c3c(N)ncnc32)[C@H](O)[C@@H]1O', '> 50 µM'),
  ('CCOC(=O)[C@H](C)NP(=O)(OC[C@@]1(C)O[C@@H](n2ccc3c(-c4ccco4)ncnc32)[C@H](O)[C@@H]1O)Oc1ccccc1 (some centres undefined)', '> 50 µM'),
  ('C[C@]1(CO)O[C@@H](n2ccc3c(-c4cc5ccccc5o4)ncnc32)[C@H](O)[C@@H]1O', '> 50 µM');
